Measured Control accompanies every entry in the list below.
Tested on: Vero
assay notes: Proliferation of Vero cells by propagation on day 4 by measuring optical density (absorbance) at 30 ug/mL
Type: functional, Chlorocebus sabaeus
// units = %; emit number, no label

Example cases with answers are listed next.
compound | property measured | value measured
Cc1cn([C@@H]2O[C@H](CO)[C@@H](O)[C@@H]2F)c(=O)[nH]c1=O | Control | 7
O=c1[nH]c(=O)n([C@@H]2O[C@H](CO)[C@@H](O)[C@@H]2F)cc1I | Control | 37
O=c1[nH]c(=O)n([C@@H]2O[C@H](CO)[C@@H](O)[C@@H]2F)cc1CCCl | Control | 75
O=c1[nH]c(=O)n([C@@H]2O[C@H](CO)[C@@H](O)[C@@H]2F)cc1CCF | Control | 98

Req: Give the reported Control for this compound. NC1=NC(=O)C2N=CN(COCCO)C2=N1 (stereo not given)
Resp: 77
